Where do these numbers come from? They come from ChEMBL document CHEMBL1156734.

# Tested on: Liver microsomes
# PROCEDURE SUMMARY: Metabolic stability in human liver microsomes
# Type: ADME, Microsome
ENDPOINT NAME: clearance (µL/min/mg)
Answer with a number only, understood to be in µL/min/mg.

QUERY SMILES | EXPERIMENTAL TARGET | UNIT TAG | clearance
O=C(COc1cccc(Cl)c1)NC1CCN(Cc2ccn(-c3ccc(C(F)(F)F)cc3)c2)CC1 | Liver microsomes | µL/min/mg | 38

Then there is this compound:
API: value(readout= clearance, system= Liver microsomes, query= O=C(COc1cccc(Cl)c1)NC1CCN(Cc2ccn(-c3ccc(OC(F)(F)F)cc3)c2)CC1 )
21

###

IC50 values, listed per item
# EXPERIMENTAL TARGET: Melanin-concentrating hormone receptor 1 (Homo sapiens, UniProt Q99705)
# Sequence (Q99705 whole entry): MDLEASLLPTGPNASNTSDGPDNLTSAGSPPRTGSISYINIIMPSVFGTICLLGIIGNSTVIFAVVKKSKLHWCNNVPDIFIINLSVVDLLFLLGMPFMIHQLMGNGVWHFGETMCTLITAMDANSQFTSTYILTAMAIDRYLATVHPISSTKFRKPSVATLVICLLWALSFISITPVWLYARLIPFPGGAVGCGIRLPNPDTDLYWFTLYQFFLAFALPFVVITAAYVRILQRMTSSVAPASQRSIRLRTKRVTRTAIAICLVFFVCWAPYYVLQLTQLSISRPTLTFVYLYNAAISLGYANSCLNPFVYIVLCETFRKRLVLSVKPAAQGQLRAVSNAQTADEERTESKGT
# PROCEDURE SUMMARY: Displacement of [125I]MCH from human MCHR1 expressed in HEK293 cells
# Type: cell-based
Write down the numeric answer in nM and omit the unit.

// worked examples, IC50 included
COMPOUND | EXPERIMENTAL TARGET | UNIT TAG | ENDPOINT RESULT
O=C(COc1cccc(Cl)c1)NC1CCN(Cc2ccn(-c3ccon3)c2)CC1 | Melanin-concentrating hormone receptor 1 (Homo sapiens, UniProt Q99705) | nM | 1500
O=C(NC1CCN(Cc2ccc(Cl)c(Cl)c2)CC1)c1csc([N+](=O)[O-])c1 | Melanin-concentrating hormone receptor 1 (Homo sapiens, UniProt Q99705) | nM | 92
O=C(COc1ccc(F)c(F)c1)NC1CCN(Cc2ccn(-c3ccc(C(F)(F)F)cc3)c2)C1 (stereo unspecified) | Melanin-concentrating hormone receptor 1 (Homo sapiens, UniProt Q99705) | nM | 29
O=C(COc1ccc(F)c(F)c1)N[C@H]1CC[C@H](Nc2ccn(-c3ccc(C(F)(F)F)cc3)c2)C1 | Melanin-concentrating hormone receptor 1 (Homo sapiens, UniProt Q99705) | nM | 2260
CC(c1ccn(-c2ccc(C(F)(F)F)cc2)c1)N1CCC(NC(=O)COc2cccc(Cl)c2)CC1 (stereo unspecified) | Melanin-concentrating hormone receptor 1 (Homo sapiens, UniProt Q99705) | nM | 43

If you can, please state the reported IC50 value of O=C(COc1cccc(Cl)c1)N1CCC(Nc2ccn(-c3ccc(C(F)(F)F)cn3)c2)CC1 .
1250

Another: O=C(COc1cccc(Cl)c1)NC1CN(Cc2ccn(-c3ccc(C(F)(F)F)cc3)c2)C1
42

Request: O=C(COc1cccc(Cl)c1)NC1CCN(Cc2ccc(-c3ccc(OC(F)(F)F)cc3)o2)CC1
78

Continue with O=C(COc1cccc(Cl)c1)NC1CCN(Cc2ccc(-c3ccccn3)cc2)CC1
120

Proceed to Fc1ccc(-c2cc(C3CCN(Cc4ccn(-c5ccc(C(F)(F)F)cc5)c4)CC3)no2)cc1
25

Similarly, Fc1ccc(-c2cc(C3CCN(Cc4ccn(-c5ccc(C(F)(F)F)cc5)c4)CC3)on2)cc1 ?
66

Follow-up entry: O=C(COc1ccc(F)c(F)c1)NCC1CN(Cc2ccn(-c3ccc(C(F)(F)F)cc3)c2)CCO1 (stereo unspecified)
269

Moving on to O=C(COc1cccc(Cl)c1)NCC1CCCN(Cc2ccn(-c3ccc(C(F)(F)F)cn3)c2)C1 (stereo unspecified)
303

How about this compound: Fc1ccc(-c2cc(C3CCN(Cc4ccn(-c5ccc(C(F)(F)F)cc5)c4)CC3)n[nH]2)cc1
37

Try this compound next: O=C(COc1cccc(Cl)c1)NC1CCN(Cc2ccn(-c3ccc(OC(F)(F)F)cc3)c2)CC1
31

Param item: Fc1ccc(-c2ncc(C3CCN(Cc4ccn(-c5ccc(C(F)(F)F)cc5)c4)CC3)[nH]2)cc1
113
